Numbers sourced from ChEMBL document CHEMBL1122022.

Biological target: Catechol O-methyltransferase (Rattus norvegicus) (UniProt P22734)
Sequence (P22734 whole entry): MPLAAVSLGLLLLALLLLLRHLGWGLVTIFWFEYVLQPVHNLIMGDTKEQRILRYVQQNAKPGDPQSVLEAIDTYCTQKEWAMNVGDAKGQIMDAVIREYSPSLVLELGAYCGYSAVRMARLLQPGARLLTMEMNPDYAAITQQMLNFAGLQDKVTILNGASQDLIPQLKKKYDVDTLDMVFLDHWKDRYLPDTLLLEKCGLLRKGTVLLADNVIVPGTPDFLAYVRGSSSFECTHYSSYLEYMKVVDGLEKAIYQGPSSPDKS
Assay: Ability to inhibit Catechol O-methyltransferase from rat liver. kinetic inhibition Kis constant was reported
PARAMETER: log10(Kis) (log10 of the value in µM)
Values below are the log10 of the recorded Kis, with µM as the unit.

Example entries begin here.
| STRUCTURE | PARAMETER | OBSERVED_MEASUREMENT |
| --- | --- | --- |
| COc1c(O)cc(C(=O)O)cc1[N+](=O)[O-] | log10(Kis) | 1.70 |
| COc1cc(C(=O)O)cc(O)c1OC | log10(Kis) | 3.00 |
| COc1c(O)cc(C(=O)O)cc1C#N | log10(Kis) | 2.77 |
| COc1c(O)cc(C(=O)O)cc1Cl | log10(Kis) | 2.60 |

Next up:
Query: I am curious: what log10(Kis) value has been reported for COc1c(O)cc(C(=O)O)cc1Br ?
Result: 2.53
